condition_label: in n-propanol, 318.15 K
readout_type: solubility (mole fraction)

Return reported solubility (mole fraction); argument: COC1CCC2(CC1)NC(=O)C(c1cc(C)ccc1C)=C2O (stereo unspecified) 0.00603

* * *

condition_label: in methanol, 328.15 K
readout_type: solubility (mole fraction)

Return reported solubility (mole fraction); argument: COC1CCC2(CC1)NC(=O)C(c1cc(C)ccc1C)=C2O (stereo unspecified) 0.00832

* * *

condition_label: in water, 303.15 K
readout_type: solubility (mole fraction)

Return reported solubility (mole fraction); argument: COC1CCC2(CC1)NC(=O)C(c1cc(C)ccc1C)=C2O (stereo unspecified) 5.12e-06

* * *

condition_label: in n-propanol, 288.15 K
readout_type: solubility (mole fraction)

Return reported solubility (mole fraction); argument: COC1CCC2(CC1)NC(=O)C(c1cc(C)ccc1C)=C2O (stereo unspecified) 0.00252

* * *

condition_label: in methanol, 318.15 K
readout_type: solubility (mole fraction)
Answer with a bare number; do not write a unit.

Return reported solubility (mole fraction); argument: COC1CCC2(CC1)NC(=O)C(c1cc(C)ccc1C)=C2O (stereo unspecified) 0.00656

* * *

condition_label: in methanol, 298.15 K
readout_type: solubility (mole fraction)
Answer with a bare number; do not write a unit.

Return reported solubility (mole fraction); argument: COC1CCC2(CC1)NC(=O)C(c1cc(C)ccc1C)=C2O (stereo unspecified) 0.00431

* * *

condition_label: in n-propanol, 323.15 K
readout_type: solubility (mole fraction)
Answer with a bare number; do not write a unit.

Return reported solubility (mole fraction); argument: COC1CCC2(CC1)NC(=O)C(c1cc(C)ccc1C)=C2O (stereo unspecified) 0.00697

* * *

condition_label: in acetonitrile, 288.15 K
readout_type: solubility (mole fraction)
Answer with a bare number; do not write a unit.

Return reported solubility (mole fraction); argument: COC1CCC2(CC1)NC(=O)C(c1cc(C)ccc1C)=C2O (stereo unspecified) 0.000317

* * *

condition_label: in acetonitrile, 318.15 K
readout_type: solubility (mole fraction)
Answer with a bare number; do not write a unit.

Return reported solubility (mole fraction); argument: COC1CCC2(CC1)NC(=O)C(c1cc(C)ccc1C)=C2O (stereo unspecified) 0.000791

* * *

condition_label: in ethanol, 308.15 K
readout_type: solubility (mole fraction)
Answer with a bare number; do not write a unit.

Return reported solubility (mole fraction); argument: COC1CCC2(CC1)NC(=O)C(c1cc(C)ccc1C)=C2O (stereo unspecified) 0.00392

* * *

condition_label: in acetonitrile, 293.15 K
readout_type: solubility (mole fraction)
Answer with a bare number; do not write a unit.

Return reported solubility (mole fraction); argument: COC1CCC2(CC1)NC(=O)C(c1cc(C)ccc1C)=C2O (stereo unspecified) 0.000345

* * *

condition_label: in water, 288.15 K
readout_type: solubility (mole fraction)
Answer with a bare number; do not write a unit.

Return reported solubility (mole fraction); argument: COC1CCC2(CC1)NC(=O)C(c1cc(C)ccc1C)=C2O (stereo unspecified) 1.96e-06

* * *

condition_label: in ethanol, 288.15 K
readout_type: solubility (mole fraction)
Answer with a bare number; do not write a unit.

Return reported solubility (mole fraction); argument: COC1CCC2(CC1)NC(=O)C(c1cc(C)ccc1C)=C2O (stereo unspecified) 0.00255

* * *

condition_label: in water, 308.15 K
readout_type: solubility (mole fraction)
Answer with a bare number; do not write a unit.

Return reported solubility (mole fraction); argument: COC1CCC2(CC1)NC(=O)C(c1cc(C)ccc1C)=C2O (stereo unspecified) 6.15e-06

Where do the numbers come from? From BigSolDB 2.1.
